# STUDY SYSTEM: Human Serum Thrombin (human, UniProt P00734)
# ASSAY METHOD TEXT: enzyme inhibition assay; limit on the assumption of less than 10% inhibition at the highest concentration tested
The entries below are paired with their reported Ki.
REPORTED METRIC: Ki

BINDER: EPI-HNE-4 (designed binder) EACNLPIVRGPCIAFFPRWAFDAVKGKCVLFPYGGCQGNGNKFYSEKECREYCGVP
RECORDED RESULT: > 90 µM
//
BINDER: EPI-HNE-3 (designed binder) AACNLPIVRGPCIAFFPRWAFDAVKGKCVLFPYGGCQGNGNKFYSEKECREYCGVP
RECORDED RESULT: > 100 µM

Attribution: patent US20060134087A1
